tested.on: Factor X, P00742
Sequence (P00742 whole entry, looked up): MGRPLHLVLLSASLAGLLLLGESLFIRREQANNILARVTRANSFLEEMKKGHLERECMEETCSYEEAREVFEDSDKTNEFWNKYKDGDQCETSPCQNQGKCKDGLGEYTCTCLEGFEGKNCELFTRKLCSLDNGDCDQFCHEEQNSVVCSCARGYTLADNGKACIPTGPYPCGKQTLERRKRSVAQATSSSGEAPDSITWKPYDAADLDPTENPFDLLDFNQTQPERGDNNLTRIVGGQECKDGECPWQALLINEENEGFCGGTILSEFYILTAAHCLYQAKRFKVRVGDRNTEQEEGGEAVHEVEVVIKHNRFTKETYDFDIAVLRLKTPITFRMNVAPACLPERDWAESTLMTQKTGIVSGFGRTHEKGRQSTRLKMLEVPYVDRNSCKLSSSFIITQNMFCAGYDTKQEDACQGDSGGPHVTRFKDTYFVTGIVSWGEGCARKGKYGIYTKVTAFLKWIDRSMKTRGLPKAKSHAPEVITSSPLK
readout: kcat (s⁻¹)
Please reply with the bare figure in s⁻¹ and do not write the unit itself.

Suppose we examine the protein FIXa R318Y/R338E/R403E/E410N (protein) chain 1: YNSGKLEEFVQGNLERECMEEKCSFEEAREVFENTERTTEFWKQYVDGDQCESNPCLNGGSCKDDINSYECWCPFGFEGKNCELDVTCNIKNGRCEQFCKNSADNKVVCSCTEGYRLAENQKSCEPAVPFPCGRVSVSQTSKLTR chain 2: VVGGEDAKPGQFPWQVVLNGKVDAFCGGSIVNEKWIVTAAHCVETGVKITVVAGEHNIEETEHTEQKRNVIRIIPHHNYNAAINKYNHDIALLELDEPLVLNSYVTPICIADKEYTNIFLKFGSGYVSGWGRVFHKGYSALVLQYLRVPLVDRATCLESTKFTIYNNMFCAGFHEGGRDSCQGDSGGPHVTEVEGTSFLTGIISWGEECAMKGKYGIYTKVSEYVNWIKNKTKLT ; what kcat value has been reported? 5
